target: Histamine H2 receptor (Cavia porcellus) (UniProt P47747); experiment: Histamine H2 receptor agonistic activity was evaluated by the inhibition of histamine-stimulated contraction in guinea pig atrium; format: functional, tissue-based; conditions: Cardiac atrium
Sequence (P47747 whole entry): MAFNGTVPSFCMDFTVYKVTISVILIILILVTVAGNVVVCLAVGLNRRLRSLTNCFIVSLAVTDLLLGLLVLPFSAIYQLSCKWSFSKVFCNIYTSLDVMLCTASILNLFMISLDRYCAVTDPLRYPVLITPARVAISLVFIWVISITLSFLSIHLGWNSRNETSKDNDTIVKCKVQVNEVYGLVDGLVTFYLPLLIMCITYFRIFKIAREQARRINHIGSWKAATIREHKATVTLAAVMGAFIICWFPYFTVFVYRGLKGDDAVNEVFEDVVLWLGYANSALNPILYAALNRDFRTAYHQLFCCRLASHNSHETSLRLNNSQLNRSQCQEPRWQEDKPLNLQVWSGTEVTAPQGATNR
readout: pD2

• N=C(NCCCc1c[nH]cn1)NCCC(c1ccc(Br)cc1)c1ccccn1 (stereo not given) = 7.48
• CN/C(=N\CCC(c1ccc(Br)cc1)c1ccccn1)NCCCc1c[nH]cn1 (stereo not given) = 5.75
• Brc1ccc(C(CC/N=C(/NCCCc2c[nH]cn2)NC2CCCCC2)c2ccccn2)cc1 (stereo not given) = 4.69
• N=C(NCCCc1c[nH]cn1)NCCC(c1ccccc1)c1ccccn1 (stereo not given) = 7.39
• N=C(NCCCc1c[nH]cn1)NCCC(c1ccc(F)cc1)c1ccccn1 (stereo not given) = 8.01
• N=C(NCCCc1c[nH]cn1)NCCCC(c1ccccc1)c1ccccn1 (stereo not given) = 6.61
• CN/C(=N\CCC(c1ccc(F)cc1)c1ccccn1)NCCCc1c[nH]cn1 (stereo not given) = 5.65
• c1ccc(C(CCC/N=C(/NCCCc2c[nH]cn2)NC2CCCCC2)c2ccccn2)cc1 (stereo not given) = 4.49
• N=C(CCCCc1c[nH]cn1)NCCC(c1ccc(F)cc1)c1ccccn1 (stereo not given) = 6.47
